Assay: chemical genetic growth profiling, strain panel (AID 1159580);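 note: tested at 20 µM; growth read once vehicle control cultures reached saturation at 30 °C; 1 = growth at the plate median or of vehicle wells; lower values mean less growth of the strain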
Settings: S. cerevisiae deletion strains, growth OD, locus YDL101C, strain DUN1, hits give low values
Screen size: about 5,500 compounds; about 2,000 (36%) were called active. About 18% were inconclusive and are not listed. The list shows a part of the results.
Parameter normalized growth: see the listing below.
Just the number.

INPUT: Which measured normalized growth value corresponds to CC(=O)CSc1nnc(-c2ccc(C(C)(C)C)cc2)n1-c1ccc(Cl)cc1 ?
OUTPUT: 0.974

----------
The molecules listed here are annotated with their normalized growth.
Assay: chemical genetic growth profiling, strain panel (AID 1159580);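 note: tested at 20 µM; growth read once vehicle control cultures reached saturation at 30 °C; 1 = growth at the plate median or of vehicle wells; lower values mean less growth of the strain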
Details: S. cerevisiae deletion strains, growth OD, locus YNL248C, strain rpa49, hits give low values
Among all 5,500 compounds or so, about 2,000 (36%) were called active. About 18% were inconclusive and are not listed. The list shows a part of the results.
Please give the numeric answer without any surrounding text.

The cases that follow already have their normalized growth on record.
molecule | normalized growth
CC1=C(/C=C/C(C)=C/C=C/C(C)=C/C=C/C=C(C)/C=C/C=C(C)/C=C/C2=C(C)C(=O)C(O)CC2(C)C)C(C)(C)CC(O)C1=O (stereo unspecified) | 1.07
CCCCCCCCCCCCCCCC(=O)OC/C=C(C)/C=C/C=C(C)/C=C/C1=C(C)CCCC1(C)C | 1.05
CC(CCc1ccccc1)NC(C)C(O)c1ccc(O)cc1 (stereo unspecified) | 0.991
c1cncc(C2CCCCN2)c1 (stereo unspecified) | 0.987
CS(=O)(=O)c1ccc(C2=C(c3ccccc3)C(=O)OC2)cc1 | 0.965

Continue with the next molecule.
INPUT: Any idea what its normalized growth is? The molecule is COc1ccc2c(c1OC)C(=O)O[C@@H]2[C@H]1c2cc3c(cc2CCN1C)OCO3
OUTPUT: 0.999

----------
Assay: chemical genetic growth profiling, strain panel (AID 1159580);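 note: tested at 20 µM; growth read once vehicle control cultures reached saturation at 30 °C; 1 = growth at the plate median or of vehicle wells; lower values mean less growth of the strain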
Details: S. cerevisiae deletion strains, growth OD, locus YMR223W, strain ubp8
In all, about 5,500 compounds went through this assay and about 2,000 (36%) were called active. Not shown: some 18% with an inconclusive outcome. No stated cut-off is given here; in the data, active means normalized growth mostly below about 0.91 (no sharp cut-off); inconclusive means no clear call, values can overlap the other calls; inactive means mostly above about 0.92. The list shows a part of the results.
Your answer must be one of the following: class 1 = active, class 0 = inactive

Known results for compounds:
compound | class
C[C@H]1OC(n2cc(F)c(=O)[nH]c2=O)C(O)[C@@H]1O (stereo partly specified) | class 0
COc1cc2c(cc1OC)C1C(=O)c3c(O)cc4c(c3OC1CO2)C=CC(C)(C)O4 (stereo unspecified) | class 0
COc1cc2c(cc1OC)C(=O)OC2 | class 0
CC(C(=O)O)c1cccc(C(=O)c2ccccc2)c1 (stereo unspecified) | class 0
CC(C)OC(=O)C(C)(C)Oc1ccc(C(=O)c2ccc(Cl)cc2)cc1 | class 0

INPUT: Any idea what this test logged for CC1(C)C(C=C(Cl)Cl)C1C(=O)OC(C#N)c1cccc(Oc2ccccc2)c1 (stereo unspecified) ?
OUTPUT: class 0

INPUT: Outcome? C[C@H]1CC2C([C@@H](O)C[C@@]3(C)C2CC[C@]3(O)C(=O)CO)[C@@]2(C)C=CC(=O)C=C12 (stereo partly specified)
OUTPUT: class 0

INPUT: // outcome(item) with item = COc1cc2c(cc1OC)C1C(=O)c3c(OC)cc4c(c3OC1CO2)CCC(C)(C)O4 (stereo unspecified)
OUTPUT: class 0

INPUT: Give the logged outcome of this assay for the following compound: CO[C@H]1[C@H](O)[C@H](O[C@H]2CC[C@]3(C)C4CC[C@]5(C)C(C6=CC(=O)OC6)CC[C@]5(O)C4CC[C@@H]3C2)O[C@@H](C)[C@@H]1O (stereo partly specified)
OUTPUT: class 0

INPUT: Which outcome was assigned to COc1ccc2c(C)cc(=O)oc2c1 in this test?
OUTPUT: class 0

INPUT: Record lookup: outcome of this test for S=c1nc[nH]c2nc[nH]c12 ?
OUTPUT: class 0

INPUT: What did the test return for Cc1cccc(C)c1OCC(C)N (stereo unspecified) ?
OUTPUT: class 0

INPUT: # lookup: test call for COc1ccc(OC)c(C(O)C(C)N)c1 (stereo unspecified)
OUTPUT: class 0

INPUT: Call for entry CN(C)CC/C=C1\c2ccccc2Sc2ccc(Cl)cc21 :
OUTPUT: class 0

INPUT: # lookup: test call for C=C1C([C@]2(C)C(CC(=O)OC)[C@@](C)(COC(C)=O)OC(=O)C[C@@H]2OC(C)=O)[C@@H](OC=O)[C@H](OC(=O)C(OC(C)=O)C(C)CC)[C@@]2(C)[C@H](c3ccoc3)CC(=O)C12O (stereo partly specified)
OUTPUT: class 0
